study target: Recombinant human Menin protein (2-610) / MLL polypeptide binding (Homo sapiens (Human), UniProt O00255)
Sequence (O00255 2-610): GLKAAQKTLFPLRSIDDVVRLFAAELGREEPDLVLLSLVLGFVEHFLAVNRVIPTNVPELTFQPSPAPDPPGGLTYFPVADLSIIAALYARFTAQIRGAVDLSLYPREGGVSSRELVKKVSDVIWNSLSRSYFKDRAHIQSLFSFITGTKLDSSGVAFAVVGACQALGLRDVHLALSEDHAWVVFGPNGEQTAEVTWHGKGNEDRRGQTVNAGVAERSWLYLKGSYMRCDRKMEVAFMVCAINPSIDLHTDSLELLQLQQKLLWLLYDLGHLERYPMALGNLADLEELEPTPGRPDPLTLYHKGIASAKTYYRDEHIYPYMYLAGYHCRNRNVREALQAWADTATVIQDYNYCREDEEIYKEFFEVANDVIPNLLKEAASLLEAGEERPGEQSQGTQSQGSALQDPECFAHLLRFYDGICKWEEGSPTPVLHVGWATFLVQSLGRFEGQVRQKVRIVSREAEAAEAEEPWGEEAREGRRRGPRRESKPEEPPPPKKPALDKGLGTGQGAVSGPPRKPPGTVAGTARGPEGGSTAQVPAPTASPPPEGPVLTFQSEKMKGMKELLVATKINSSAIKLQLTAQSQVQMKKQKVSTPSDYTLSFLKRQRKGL
assay info: Menin and MLL protein binding at a molecular level (fluorescence polarization method)
measurement conditions: inhibition of Menin / MLL polypeptide binding
What IC50 was measured for each of the following?

Past entries and their recorded results:
1) CCN(C(=O)c1cc(F)ccc1Oc1nncnc1N1CC2(CCN(CC3CCN(c4ncccn4)CC3)CC2)C1)C(C)C [Compound 78] : 28.8 nM
2) C[C@H]1COCCN1C(=O)c1cc(F)ccc1Oc1nncnc1N1CC2(CCN(CC3CCN(c4ccccn4)CC3)CC2)C1 [Compound 77] : 73.8 nM
3) CCN(C(=O)c1cc(F)ccc1Oc1nncnc1N1CC2(CCN(CC3CCN(C(=O)C4CC4)CC3)CC2)C1)C(C)C [Compound 1] : 13.6 nM

Provide the reported IC50 of each entry below, same order.
1. CCN(C(=O)c1cc(F)ccc1Oc1nncnc1N1CC2(CCN(Cc3cnc4c(c3)OC[C@H](c3ccc(OC)nc3)O4)CC2)C1)C(C)C [Compound 73]
2. CCN(C(=O)c1cc(F)ccc1Oc1nncnc1N1CC2(CCN(Cc3ccc4oc(C#N)cc4c3)CC2)C1)C(C)C [Compound 69]
3. CCN(C(=O)c1cc(F)ccc1Oc1nncnc1N1CC2(CCN(CC3CCN(c4ccc(C#N)cn4)CC3(C)C)CC2)C1)C(C)C (stereo not shown) [Compound 126]

Response:
1: > 1000 nM; 2: 8.5 nM; 3: 14.6 nM

// recorded IC50 for CCN(C(=O)c1cc(F)ccc1Oc1nncnc1N1CC2(CCN(CC3CCN(c4ccc(C5CC5)nn4)CC3)CC2)C1)C(C)C [Compound 44] : 4.3 nM

---

study target: Recombinant human Menin protein (2-610) / MLL polypeptide binding (Homo sapiens (Human))
assay info: Menin and MLL protein binding at a molecular level (fluorescence polarization method)
measurement conditions: inhibition of Menin / MLL polypeptide binding
Procedure: Example 3: Determination of the Activity of the Compounds of the Present Invention on Menin and MLL Protein Binding at a Molecular Level (Fluorescence Polarization Method) 1. Reagents, Materials and Instruments: […] The vertical polarization S value and the horizontal polarization P value (excitation wavelength was 480 nm, and emission wavelength was 535 nm) were measured with Envision. […]
pIC50: −log10 of the molar value.
Rule: pIC50 under 8 gives no, otherwise yes.

Below are worked cases with known answers.
1. CCN(C(=O)c1cc(F)ccc1Oc1nncnc1N1CC2(CCN(Cc3ccc4[nH]c(C#N)cc4c3C)CC2)C1)C(C)C : yes
2. CCN(C(=O)c1cc(F)ccc1Oc1nncnc1N1CC2(CCN(CC3CCN(c4cc(OC)c(OC)nn4)CC3)CC2)C1)C(C)C : yes
3. CCN(C(=O)c1cc(F)ccc1Oc1nncnc1N1CC2(CCN(Cc3ccc4c(cc(C#N)n4C4COC4)c3C)CC2)C1)C(C)C : yes
4. CCN(C(=O)c1cc(F)ccc1Oc1nncnc1N1CC2(CCN(Cc3c(C)cc(C)[nH]c3=O)CC2)C1)C(C)C : no

Let us examine a further case.
Request: Record "CC(C)n1nccc1-c1cc(F)ccc1Oc1nncnc1N1CC2(CCN(CC3CCN(c4ccc(C(F)(F)F)nn4)CC3)CC2)C1" ; criterion: pIC50 no lower than 8. Met?
Response: yes

---

What IC50 was measured for each of the following?
study target: Recombinant human Menin protein (2-610) / MLL polypeptide binding (Homo sapiens (Human), UniProt O00255)
assay info: Menin and MLL protein binding at a molecular level (fluorescence polarization method)
measurement conditions: inhibition of Menin / MLL polypeptide binding
Structures can show the parent of a compound that is named as a salt.
One number for each entry, in nM.

1) CCN(C(=O)c1cc(F)ccc1Oc1nncnc1N1CC2(CCN(CC3CCN(c4ccc(C(N)=O)cn4)CC3)CC2)C1)C(C)C [Compound 149, formate] : 2.9

Provide the reported IC50 of each entry below, same order.
1. CCN(C(=O)c1cc(F)ccc1Oc1nncnc1N1CC2(CCN(CC3CCN(c4ccncn4)CC3)CC2)C1)C(C)C
2. CCN(C(=O)c1cc(F)ccc1Oc1nncnc1N1CC2(CCN(C(C)C3CCN(c4cc(OC)c(OC)nn4)CC3)CC2)C1)C(C)C (stereo not drawn)
3. CCN(C(=S)c1cc(F)ccc1Oc1nncnc1N1CC2(CCN(CC3CCN(c4cc(OC)c(OC)nn4)CC3)CC2)C1)C(C)C
4. C=CC(=O)Nc1cccc(N2CC3(CCC(CN4CCC5(CC4)CN(c4ncnnc4Oc4ccc(F)cc4C(=O)N(CC)C(C)C)C5)CC3)C2)c1

Response:
1. 5.3
2. 41.3
3. 3.3
4. 25.5

// recorded IC50 for "CCN(C(=O)c1cc(F)ccc1Oc1nncnc1N1CC2(CCN(CC3CCN(c4cnc(C#N)cn4)CC3)CC2)C1)C(C)C" : 18.5

---

What GI50 was measured for each of the following?
System: MV-4-11 cells (human acute myelogenous leukemia cell line carrying MLL-AF4 mutation)
assay info: Cell proliferation assay, MV-4-11 (CellTiter-Glo)
Type: cell-based
measurement conditions: Homo sapiens, MV4-11, 72 h, MV-4-11 cells, 3 days treatment, CellTiter-Glo; read-out: GI50
Numbers only, in nM.

1) CCN(C(=O)c1cc(F)ccc1Oc1nncnc1N1CC2(CCN(CC3CCN(c4ccc(C(F)(F)F)nn4)CC3)CC2)C1)C(C)C : 2
2) Cc1nc(-c2cc(F)ccc2Oc2nncnc2N2CC3(CCN(Cc4ccc5c(cc(C#N)n5CCO)c4C)CC3)C2)n(C(C)C)n1 : 22

Attention now shifts to the item below.
// recorded GI50 for "CCN(C(=O)c1cc(F)ccc1Oc1nncnc1N1CC2(CCN(Cc3cnc4c(c3)OC[C@H](c3ccc(OC)nc3)O4)CC2)C1)C(C)C" : 1270

---

Tested on: MV-4-11 cells (human acute myelogenous leukemia cell line carrying MLL-AF4 mutation)
assay info: Cell proliferation assay, MV-4-11 (CellTiter-Glo)
Type: cell-based
measurement conditions: Homo sapiens, MV4-11, 72 h, MV-4-11 cells, 3 days treatment, CellTiter-Glo; read-out: GI50
What GI50 was measured for each of the following?
Answers are plain numbers, in µM.

Past entries and their recorded results:
1) C=CC(=O)N1CCC(CN2CCC3(CC2)CN(c2ncnnc2Oc2ccc(F)cc2C(=O)N(CC)C(C)C)C3)CC1 [Compound 20] : 0.058
2) CCN(C(=O)c1cc(F)ccc1Oc1nncnc1N1CC2(CCN(CC3CCN(c4cnc(Cl)nn4)CC3)CC2)C1)C(C)C [Compound 41] : 0.008
3) CCN(C(=O)c1cc(F)ccc1Oc1nncnc1N1CC2(CCN(CC3CCN(c4ccc(OC)cn4)CC3)CC2)C1)C(C)C [Compound 112] : 0.005
4) CCN(C(=O)c1cc(F)ccc1Oc1nncnc1N1CC2(CCN(CC3CCN(c4nnc(OC)cc4C)CC3)CC2)C1)C(C)C [Compound 98] : 0.012
5) CCN(C(=O)c1cc(F)ccc1Oc1nncnc1N1CC2(CCN(CC3CCN(C(=O)NC)CC3)CC2)C1)C(C)C [Compound 27] : 0.013

Provide the reported GI50 of each entry below, same order.
1. C=Cc1ccc(N2CCC(CN3CCC4(CC3)CN(c3ncnnc3Oc3ccc(F)cc3C(=O)N(CC)C(C)C)C4)CC2)nn1 [Compound 133]
2. CCN(C(=O)c1cc(F)ccc1Oc1nncnc1N1CC2(CCN(CC3CCN(C(=O)N(C)c4ccccn4)CC3)CC2)C1)C(C)C [Compound 25]
3. CCN(C(=O)c1cc(F)ccc1Oc1nncnc1N1CC2(CCN(Cc3ccc4nc(OC)ncc4c3)CC2)C1)C(C)C [Compound 70]

Response:
0.004
0.231
2.15

---

System: MV-4-11 cells (human acute myelogenous leukemia cell line carrying MLL-AF4 mutation)
assay info: Cell proliferation assay, MV-4-11 (CellTiter-Glo)
Type: cell-based
measurement conditions: Homo sapiens, MV4-11, 72 h, MV-4-11 cells, 3 days treatment, CellTiter-Glo; read-out: GI50
Each entry belongs to exactly one class, chosen by where its GI50 falls: class A: < 6 nM; class B: ≥ 6 nM and < 60 nM; class C: ≥ 60 nM

Below are worked cases with known answers.
1) CCN(C(=O)c1cc(F)ccc1Oc1nncnc1N1CC(C2(N(C)Cc3ccc4c(cc(C#N)n4CCO)c3C)CC2)C1)C(C)C [Compound 153] : class B
2) CCN(C(=O)c1cc(F)ccc1Oc1nncnc1N1CC2(CCN(CC3CCN(c4cc(OC)ccn4)CC3)CC2)C1)C(C)C [Compound 113] : class A
3) CCN(C(=O)c1cc(F)ccc1Oc1nncnc1N1CC2(CCN(Cc3ccc4c(cc(C(N)=O)n4CCO)c3C)CC2)C1)C(C)C [Compound 158] : class C
4) CCN(C(=O)c1cc(F)ccc1Oc1nncnc1N1CC2(CCN(CC3CCN(c4ccn5ncnc5c4)CC3)CC2)C1)C(C)C [Compound 55] : class A
5) CCN(C(=O)c1cc(F)ccc1Oc1nncnc1N1CC2(CCN(CC3CCN(C(=O)COC)CC3)CC2)C1)C(C)C [Compound 9] : class C
6) N#Cc1ccc(N2CCC(CN3CCC4(CC3)CN(c3ncnnc3Oc3ccc(F)cc3C3=CCOCC3)C4)CC2)nc1 [Compound 117] : class C
7) CCN(C(=O)c1cc(F)ccc1Oc1nncnc1N1CC2(CCN(CC3CCN(C(=O)C4CC4)CC3)CC2)C1)C(C)C [Compound 1] : class B
8) CCN(C(=O)c1cc(F)ccc1Oc1nncnc1N1CC2(CCN(CC3CCN(C(=O)C4COC4)CC3)CC2)C1)C(C)C [Compound 5] : class B

Request: Sort into band: CC(C)n1nccc1-c1cc(F)ccc1Oc1nncnc1N1CC2(CCN(CC3CCN(c4ccc(C(F)(F)F)nn4)CC3)CC2)C1 [Compound 91]
Response: class B

Request: Sort into band: CCN(C(=O)c1cc(F)ccc1Oc1nncnc1N1CC2(CCN(CC3CCN(c4ccc(=O)n(C)n4)CC3)CC2)C1)C(C)C [Compound 81]
Response: class C

Request: Sort into band: CCN(C(=O)c1cc(F)ccc1Oc1nncnc1N1CC2(CCN(CC3CCN(C(=O)NC(C)C)CC3)CC2)C1)C(C)C [Compound 29]
Response: class B

Request: Sort into band: CCN(C(=O)c1cc(F)ccc1Oc1nncnc1N1CC2(CCN(CC3CCN(c4cc(C)c(OC)nn4)CC3)CC2)C1)C(C)C [Compound 97]
Response: class A
